# system.under.test: T1, human OT7T175 (metastin receptor) (human, UniProt Q969F8 1-398)
# T1 construct: expressed on CHO cells (hOT7T175-expressed CHO cells; hOT7T175/CHO); also called hOT7T175; h0T7T175
# assay.text: FMAT competition with Cy-5-labeled metastin (40-54), hOT7T175-expressed CHO cells
Square brackets hold non-standard residues; d marks the D form. Ends that are not written are not given here. Arg(Me) = CNC(=N)NCCC[C@H](N)C(=O)O; azaGly = NNC(=O)O
property.measured: IC50 (nM)
// note: answer is a bare numeric in nM

Lab note: measured IC50 of [dY]NFNSF[azaGly]L[Arg(Me)]F-NH2 [Compound No. 244: [D-Tyr1,Phe3,AzaGly7,Arg(Me)9]MS10] was 77

Looking up [dY][dW]NSF[azaGly]L[Arg(Me)]F-NH2 [Compound No. 242: des(1)-[D-Tyr2,D-Trp3,AzaGly7,Arg(Me)9]MS10] , I found its IC50 recorded as 70

// field: IC50; key: YNWNSFGLXF (Har(Me)9; C-terminal amide) [Compound No. 312: [Har(Me)9]MS10] ; value = 100
